# measured-on: human CXCR4 (on cells, membrane extracts or viral lipoparticles) (human, UniProt P61073 1-352)
# Sequence (P61073 whole entry): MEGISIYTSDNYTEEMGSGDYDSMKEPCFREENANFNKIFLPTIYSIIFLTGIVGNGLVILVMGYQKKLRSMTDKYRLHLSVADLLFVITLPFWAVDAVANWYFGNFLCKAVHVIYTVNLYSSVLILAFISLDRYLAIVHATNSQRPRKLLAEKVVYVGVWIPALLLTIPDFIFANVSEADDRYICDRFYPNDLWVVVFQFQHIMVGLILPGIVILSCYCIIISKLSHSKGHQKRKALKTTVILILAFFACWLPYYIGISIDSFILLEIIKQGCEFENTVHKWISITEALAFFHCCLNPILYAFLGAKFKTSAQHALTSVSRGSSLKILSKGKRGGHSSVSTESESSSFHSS
# assay-summary: cell-based or functional assay
Listed below: Fold inc. vs anti-CXCR4 building block, Jurkat E6-1 values for each entry.
measured-endpoint: Fold inc. vs anti-CXCR4 building block, Jurkat E6-1 (fold)

| binder | measured |
| --- | --- |
| 14D09-57A07 (4CXCR014D09(Q108L)-35GS-A0110057A07) (bispecific antibody, the entry carries a c-myc-His6 tag; also made as Flag3-His6-tagged protein; also called CXCR4#1-CD123#1; BI#16/20) EVQLVESGGGLVQAGGSLRLSCVASGISSSKRNMGWYRQAPGKQRESVATISSGGNKDYTDAVKDRFTISRDTTKNTVYLQMNSLKPEDTAVYYCKIEAGTGWATRRGYTYWGQGTLVTVSSGGGGSGGGGSGGGGSGGGGSGGGGSGGGGSGGGGSEVQLVESGGGLVQAGGSLRLSCAASGSIFSGNVMGWYRRQAPGKEREWVAAIASGGSIYYRDSVKGRFTISRDNAKNTVYLQMNSLKPEDTAVYYCNSHPPTLPYWGQGTLVTVSSAAAEQKLISEEDLNGAAHHHHHH | 0.69 |
| 55A01-14D09 (A0110055A01-35GS-4CXCR014D09(Q108L)) (bispecific antibody, the entry carries a c-myc-His6 tag; also made as Flag3-His6-tagged protein; also called CD123#2-CXCR4#1; BI#8/22) EVQLVESGGGSVQAGGSLRLSCTTSGRALNMYVMGWFRQAPGNEREFVAATSSSGGSTSYPDSVKGRFTISRDNAKNTVYLQMNSLKPEDTAAYRCAASPYVSTPTMNILEEYRYWGQGTLVTVSSGGGGSGGGGSGGGGSGGGGSGGGGSGGGGSGGGGSEVQLVESGGGLVQAGGSLRLSCVASGISSSKRNMGWYRQAPGKQRESVATISSGGNKDYTDAVKDRFTISRDTTKNTVYLQMNSLKPEDTAVYYCKIEAGTGWATRRGYTYWGQGTLVTVSSAAAEQKLISEEDLNGAAHHHHHH | 0.12 |
| 281F12-57A07 (4CXCR281F12(Q108L)-35GS-A0110057A07) (bispecific antibody, the entry carries a c-myc-His6 tag; also made as Flag3-His6-tagged protein; also called CXCR4#2-CD123#1; BI#4/18) EVQLVESGGGLVQAGDSLRLSCAASGRAFSRYAMGWFRQAPGKEREFVAAIGWGPSKTNYADSVKGRFTISRDNAKNTVYLQMNTLKPEDTAVYSCAAKFVNTDSTWSRSEMYTYWGQGTLVTVSSGGGGSGGGGSGGGGSGGGGSGGGGSGGGGSGGGGSEVQLVESGGGLVQAGGSLRLSCAASGSIFSGNVMGWYRRQAPGKEREWVAAIASGGSIYYRDSVKGRFTISRDNAKNTVYLQMNSLKPEDTAVYYCNSHPPTLPYWGQGTLVTVSSAAAEQKLISEEDLNGAAHHHHHH | 2.55 |
